B1: Zinc finger MYM-type protein 6, residues 427 to 504; numbered along this chain, O95789 (parent)
chain: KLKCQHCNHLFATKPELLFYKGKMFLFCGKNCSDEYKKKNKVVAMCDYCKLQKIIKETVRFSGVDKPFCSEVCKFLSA

Variants of: B1
ASSAY DETAILS: abundance fitness (aPCA) (normalised: wild type 0, dead -1); higher = more abundant; growth selection in yeast, the domain comes from the species named
EXPERIMENTAL PARAMETERS: Homo sapiens
// abundance fitness lookup, one value per entry
Hey, just send me the number, nothing else.

C73W | -0.751
K66E | 0.161
G29S | -0.123
G29V | -0.204
K37W | -0.099
Y36D | -0.453
F61G | -0.002
F68L | -0.288

### Prompt Which abundance fitness is reported for this variant? F25P
### Response -0.17

### Prompt For D65T , what is its reported abundance fitness?
### Response -0.208

### Prompt # get_value(readout='abundance fitness', item= G29P )
### Response -0.683

### Prompt Suppose we examine the variant V59S ; what abundance fitness value has been reported?
### Response -0.314

### Prompt // query abundance fitness value for entry G29M
### Response -0.084

### Prompt What value of abundance fitness has been reported for the following variant? S62Y
### Response 0.176
